- Test system: L1210 leukemia ip in BDF1 mice, survival T/C
- Experiment description: NCI In Vivo Anticancer Drug Screen. Data for tumor model L1210 Leukemia (intraperitoneal) in B6D2F1 (BDF1) mice
- Assay conditions: endpoint: mean survival time; dose: 100.0 mg/kg/injection; schedule: Q04DX003 (ip); vehicle: acetone; higher = longer survival
Inconclusive results and toxic doses are left out.
Measured metric: T/C

Past entries and their recorded results:
CSc1ccc2c(c1)-c1ccccc1C2=O :: 94 % of control
COc1ccc([I+]c2ccc(OC)cc2)cc1 :: 100 % of control
CCN(CC)CCOC(=O)c1ccccc1N(c1ccccc1)c1ccccc1 :: 96 % of control
O=C(O)c1ccc(NCO)cc1 :: 94 % of control

Request: Please give measured T/C of the following entry: COc1ccccc1C1CC(C(C)(C)C)CCC1OS(=O)(=O)c1ccc(C)cc1 (stereo not given)
Result: 102 % of control

----------
- Tested on: L1210 leukemia ip in BDF1 mice, survival T/C
- Experiment description: NCI In Vivo Anticancer Drug Screen. Data for tumor model L1210 Leukemia (intraperitoneal) in B6D2F1 (BDF1) mice
- Assay conditions: endpoint: mean survival time; dose: 200.0 mg/kg/injection; schedule: Q01DX005 (ip); vehicle: saline; higher = longer survival
Toxic doses and inconclusive results are not listed.
Quick reference: T/C of the listed items.

Sample answers from the record:
COc1ccc(COC2C(O)C(CO)OC2n2cnc3c(N)ncnc32)cc1 (centres undefined) :: 94 % of control
CCOCCNCC1OC(OC)C2OC(C)(C)OC12 (centres undefined) :: 103 % of control
Cn1cnc([N+](=O)[O-])c1Sc1nc(N)nc2c1ncn2C1CC(O)C(CO)O1 (centres undefined) :: 107 % of control

Request: Give reported T/C value for Nn1cnc2c(ncn2C2OC(CO)C(O)C2O)c1=O (centres undefined)
Result: 100 % of control

----------
Measured T/C, listed per entry for reference.
- Tested on: L1210 leukemia ip in BDF1 mice, survival T/C
- Experiment description: NCI In Vivo Anticancer Drug Screen. Data for tumor model L1210 Leukemia (intraperitoneal) in B6D2F1 (BDF1) mice
- Assay conditions: endpoint: mean survival time; dose: 75.0 mg/kg/injection; schedule: Q04DX003 (ip); vehicle: saline; higher = longer survival
Toxic doses and inconclusive results are not listed.

Worked examples, 4 compounds total:
CCCCN(CCCC)C(=S)[S-].CCCCN(CCCC)C(=S)[S-].[Zn] :: 98 % of control
c1ccc(SCCCCSc2ccccc2)cc1 :: 95 % of control
CC[n+]1cccc(C#N)c1 :: 93 % of control
NC(=O)C(N)CCO (stereo not given) :: 104 % of control

Shifting focus to the compound that follows.
Request: Give me measured T/C, please, for this compound: `COc1ccc(N2c3ccccc3-c3cc[nH]c(=O)c3[C@H]2O)cc1OC`
Result: 99 % of control

----------
- Test system: L1210 leukemia ip in BDF1 mice, survival T/C
- Experiment description: NCI In Vivo Anticancer Drug Screen. Data for tumor model L1210 Leukemia (intraperitoneal) in B6D2F1 (BDF1) mice
- Assay conditions: endpoint: mean survival time; dose: 200.0 mg/kg/injection; schedule: Q01DX009 (ip); vehicle: saline with Tween-80; higher = longer survival
Toxic doses and inconclusive results are not listed.
Recorded T/C values for a group of compounds are listed next.

// known answers, use as guide
COc1cc(OC)c(OC)cc1/C=C/c1ccc2ccccc2n1 :: 100 % of control
CCNc1nc(Cl)nc(N(CC)CC)n1 :: 98 % of control

Request: Give T/C for `COCN(C(=O)CCl)c1c(C)cccc1C(C)(C)C` tested on L1210 leukemia ip in BDF1 mice, survival T/C.
Result: 97 % of control

Request: Report the value of T/C obtained on L1210 leukemia ip in BDF1 mice, survival T/C for `O=c1cc(Cl)c(=O)[nH][nH]1` .
Result: 100 % of control

Request: Quote L1210 leukemia ip in BDF1 mice, survival T/C T/C for entry `CC(=O)c1ccccc1OS(=O)(=O)c1ccc([N+](=O)[O-])cc1` .
Result: 111 % of control

Request: // fetch T/C for CC(=O)OCC(C)CCC(=O)C(C)C1C(=O)CC2C3CC=C4CC(OC(C)=O)CCC4(C)C3CCC21C (stereo not given) ; system: L1210 leukemia ip in BDF1 mice, survival T/C
Result: 97 % of control

Request: System L1210 leukemia ip in BDF1 mice, survival T/C. Read-out T/C. Item `CC(C)OC(=O)Nc1ccc(Cl)cc1` . Report value.
Result: 97 % of control

----------
- System: L1210 leukemia ip in BDF1 mice, survival T/C
- Experiment description: NCI In Vivo Anticancer Drug Screen. Data for tumor model L1210 Leukemia (intraperitoneal) in B6D2F1 (BDF1) mice
- Assay conditions: endpoint: mean survival time; dose: 100.0 mg/kg/injection; schedule: Q04DX003 (ip); vehicle: saline with Tween-80; higher = longer survival
Inconclusive results and toxic doses are left out.
Measured metric: T/C

Request: Check the records and state T/C for `CN(C)C=Nc1ccc(Cl)c(Cl)c1`
Result: 97 % of control

Request: Given the compound OC1C(O)C(O)C(O)C(O)C1O (centres undefined) , write its reported T/C.
Result: 104 % of control

Request: Let me know recorded T/C for `NC(=S)NC(N)=S` , thanks.
Result: 94 % of control

Request: For the compound CCCC(C)CN (centres undefined) , report T/C.
Result: 100 % of control

Request: Give a short answer stating reported T/C for `CCCCOC(=O)NCCSC(=O)OCCCC` .
Result: 101 % of control

Request: Complete the entry with T/C for `O=C(CCl)NC(=O)CCl`
Result: 103 % of control

Request: Answer with the recorded T/C of C=CN1C(=O)N(C=C)C(C)(CC(C)C)C1=O (centres undefined) only.
Result: 92 % of control

Request: Annotate the compound CCOC(=O)c1ccc(OC2CCCCO2)c(OC2CCCCO2)c1 (centres undefined) with its measured T/C.
Result: 98 % of control

Request: Quote T/C reported for `C=C(C)CC1(CC)C(=O)NC(=S)NC1=O` please.
Result: 96 % of control

Request: Give recorded T/C. C1CC2C3CCC(C3)C2C1 (centres undefined)
Result: 94 % of control

Request: Given the compound `S=c1[nH]c2c(Cl)c(Cl)c(Cl)c(Cl)c2[nH]1` , write its reported T/C.
Result: 100 % of control

Request: # return recorded T/C for entry `CCCCCCCCCCCCCCCCCCCOc1ccc(OCCCCCCCC)cc1`
Result: 94 % of control

Request: Given the compound `CCCSc1nccc2n[nH]nc12` , write its reported T/C.
Result: 96 % of control

Request: Provide one value: measured T/C of CC1(Br)Cc2ccccc2C1=O (centres undefined)
Result: 107 % of control

Request: Let me know recorded T/C for `COc1ccc(OC(=O)CCCl)cc1` , thanks.
Result: 95 % of control

----------
Quick reference for T/C among some compounds
- Test system: L1210 leukemia ip in BDF1 mice, survival T/C
- Experiment description: NCI In Vivo Anticancer Drug Screen. Data for tumor model L1210 Leukemia (intraperitoneal) in B6D2F1 (BDF1) mice
- Assay conditions: endpoint: mean survival time; dose: 150.0 mg/kg/injection; schedule: Q01DX001 (ip); vehicle: other; higher = longer survival
Toxic doses and inconclusive results are not listed.

Cc1c2c(c(C)c3ccncc13)S(=O)(=O)c1ccccc1-2 :: 93 % of control
N=c1c2n[nH]nc2ncn1O :: 110 % of control

Request: Provide measured T/C value, entry: O=C1C2C3c4ccccc4C(C2C(=O)N1c1ccc(Cl)cc1)[n+]1ccccc13 (centres undefined)
Result: 103 % of control

Request: Could you please provide reported T/C for `Cc1ccc2nc3nc(-c4ccccc4)c(-c4ccccc4)nc3nc2c1` ? Thanks!
Result: 94 % of control

----------
- System: L1210 leukemia ip in BDF1 mice, survival T/C
- Experiment description: NCI In Vivo Anticancer Drug Screen. Data for tumor model L1210 Leukemia (intraperitoneal) in B6D2F1 (BDF1) mice
- Assay conditions: endpoint: mean survival time; dose: 100.0 mg/kg/injection; schedule: Q01DX009 (ip); vehicle: saline; higher = longer survival
Inconclusive results and toxic doses are left out.
// reported T/C for each item listed

NCCCC(=O)O :: 100 % of control
C=CCOC(=O)C(C)O (stereo not drawn) :: 98 % of control

Request: # return recorded T/C for entry `Nc1ncnn1C(=O)OCc1ccccc1`
Result: 89 % of control

Request: Read the entry `Cc1cccc(C(=O)NCC(=O)O)c1` and write its reported T/C.
Result: 94 % of control

----------
Listed compounds paired with reported T/C
- Tested on: L1210 leukemia ip in BDF1 mice, survival T/C
- Experiment description: NCI In Vivo Anticancer Drug Screen. Data for tumor model L1210 Leukemia (intraperitoneal) in B6D2F1 (BDF1) mice
- Assay conditions: endpoint: mean survival time; dose: 100.0 mg/kg/injection; schedule: Q01DX009 (ip); vehicle: gum acacia; higher = longer survival
Inconclusive results and toxic doses are left out.

Worked set:
O=C(Nc1ccc(Cl)cc1C(F)(F)F)Sc1ccc(Cl)cc1 :: 92 % of control
OC12c3ccccc3C1(c1ccccn1)c1ccccc12 (stereo not given) :: 98 % of control
CCCCCCCCCCCCCCCCCC(=O)Nc1ccc(O)cc1 :: 87 % of control
O=[N+]([O-])c1cc(S(=O)(=O)C(F)F)ccc1Cl :: 88 % of control

Switching to the query record.
Request: Consider the compound `CC(=O)c1cc2ccccc2oc1=O` . State its measured T/C.
Result: 117 % of control

meta.source: PubChem BioAssay AID248
